Tested on: RPMI-8226 leukemia
experimental protocol: NCI-60 one-dose screen, 48 h
run conditions: 10 µM unless noted
Method: Growth inhibition of the RPMI-8226 human tumor cell line is measured as a screen for anti-cancer activity. Cells are grown in 96 well plates and exposed to the test compound for 48 hours. Compounds are tested at a single concentration, which is 10^-5 M for most compounds. The reported endpoint is percent growth (GI% or GIPRCNT), where numbers from 0 - 100% represent growth inhibition, and numbers from -100% - 0 represent cell death. For example, a value of 40 represents 60% growth inhibition. […]
The panel holds about 83,000 compounds, 20% with a hit somewhere; the sample as a whole holds those more often. Active and inactive are the calls of the source. Rule for the calls: active = growth percent below 10; inactive = the rest.
Your response should consist of one outcome taken from active, inactive

Worked cases, answers included:
COc1ccc(/C(C)=C(\c2ccc(OCCN3CCCCCC3)cc2)c2ccc(OC(=O)C3CCCCC3)cc2)cc1 : active
O=C(NCc1cccnc1)/C(=C\c1ccc(Br)cc1)S(=O)(=O)c1ccccc1 : inactive
CN1CCN(CCNC(=O)c2cccc(CN3c4cccc5c4C(=Cc4cccnc43)N(C)C5=O)c2)CC1 : active
Nc1n[nH]c2cccc(C#Cc3cccc(NC(=O)c4ccc(N5CCOCC5)c(C(F)(F)F)c4)c3)c12 : active
CC[C@]1(O)CC2CN(CCc3c([nH]c4ccccc34)C(C(=O)OC)(c3cc4c(cc3OC)N(C=O)[C@H]3[C@@](O)(C(=O)OC)[C@H](OC(C)=O)[C@]5(CC)[C@@H]6C[C@@H]6CN6CC[C@]43[C@@H]65)C2)C1 (stereo partly drawn) : inactive

Tell me the assay call for `COc1ccc(/C=N\Nc2nc(SCC(C)C)nc(-c3ccc(OC)cc3)c2C#N)cc1` please. inactive

Quick one: Cn1ccnc1CN1CCSC(C(=O)Nc2ccccc2)C1 (stereo not drawn) inactive

Quick one: `Cc1ccc(NC(=O)c2sc3nc(C)c(C(=O)c4ccccc4)cc3c2N)cc1` inactive

* * *

Reported growth values are given for each entry in this list.
Tested on: A549/ATCC NSCLC
experimental protocol: NCI-60 one-dose screen, 48 h (100 = growth as untreated, 0 = no growth, -100 = all killed)
run conditions: 100 µM
Compounds without any hit were thinned out: in the full panel of roughly 83,000, 20% have a hit.
Kindly answer with a numeric value in %, unit omitted.

Study these solved cases before continuing.
COc1ccc(C(=O)/C=C/c2ccc(OCc3cccc(C(F)(F)F)c3)c(OC)c2)cc1OC : 14.9
CC(=O)/C=C/c1ccc(OCc2ccc(C(C)(C)C)cc2)cc1 : 41.8
CC(=O)/C=C/c1ccc(N(CCO)Cc2ccc(C(C)(C)C)cc2)cc1 : -99.3
CCN(Cc1ccccc1)c1ccc(/C=C2\COc3ccccc3C2=O)cc1 : 47
COc1ccc(C(=O)/C=C/c2ccc(OCc3ccc(Cl)cc3)cc2)cc1OC : 13.7

Now, please, on to the next compound.
For the compound shown here, `O=C(/C=C/c1cccc(Oc2ccc(Cl)cc2)c1)c1ccccc1` , give the reported growth. -75.7

* * *

Reported growth values are given for each entry in this list.
System: PC-3 prostate
experimental protocol: NCI-60 one-dose screen, 48 h (100 = growth as untreated, 0 = no growth, -100 = all killed)
run conditions: 10 µM
Compounds without any hit were thinned out: in the full panel of roughly 83,000, 20% have a hit. Activity calls are given as the source filed them. The calls were made as follows: active = growth percent below 10; inactive = the rest.

Study these solved cases before continuing.
CC(=O)/C=C/c1ccc(N(C)Cc2ccc(C(C)(C)C)cc2)cc1 : 77.6% (inactive)
COc1ccc(C(=O)/C=C/c2ccc(OCc3cccc(C(F)(F)F)c3)c(OC)c2)cc1OC : 69.1% (inactive)
CC(=O)/C=C/c1ccc(N(CCO)Cc2ccc(C(C)(C)C)cc2)cc1 : 66% (inactive)
O=C(/C=C/c1cccc(Oc2ccc(Cl)cc2)c1)c1ccccc1 : 84.5% (inactive)

Now, please, on to the next molecule.
For the molecule shown here, `CC(=O)/C=C/c1ccc(OCc2ccc(Cl)cc2)cc1` , give the reported growth. 90% (inactive)

* * *

Test system: M14 melanoma
experimental protocol: NCI-60 one-dose screen, 48 h (100 = growth as untreated, 0 = no growth, -100 = all killed)
run conditions: 100 µM
About 83,000 compounds went through this panel and 20% of them were active in at least one assay; those are over-represented in the sample as a whole.
Quick rule for you: growth at 10% or higher means Y, lower means N.

Worked cases, answers included:
COc1ccc(C(=O)/C=C/c2ccc(OCc3ccc(Cl)cc3)cc2)cc1OC : Y
CC(=O)/C=C/c1ccc(OCc2ccc(Cl)cc2)cc1 : Y
CC(=O)/C=C/c1ccc(N(CCO)Cc2ccc(C(C)(C)C)cc2)cc1 : N

Can `COc1ccc(C(=O)/C=C/c2ccc(OCc3cccc(C(F)(F)F)c3)c(OC)c2)cc1OC` be said to have growth at or above 10%? Y

Quick one: `CC(=O)/C=C/c1ccc(OCc2ccc(C(C)(C)C)cc2)cc1` Y

* * *

Tested on: HCT-15 colon
experimental protocol: NCI-60 one-dose screen, 48 h
run conditions: 10 µM unless noted
Procedure: Growth inhibition of the HCT-15 human tumor cell line is measured as a screen for anti-cancer activity. Cells are grown in 96 well plates and exposed to the test compound for 48 hours. Compounds are tested at a single concentration, which is 10^-5 M for most compounds. The reported endpoint is percent growth (GI% or GIPRCNT), where numbers from 0 - 100% represent growth inhibition, and numbers from -100% - 0 represent cell death. For example, a value of 40 represents 60% growth inhibition. […]
The panel holds about 83,000 compounds, 20% with a hit somewhere; the sample as a whole holds those more often. The source made the active and inactive calls. Rule for the calls: active = growth percent below 10; inactive = the rest.
Your response should consist of one outcome taken from active, inactive

COc1ccc(CCNC(=O)COc2cc3c(Nc4ccc(F)c(Cl)c4)ncnc3cc2OC)cc1OC : inactive
FC(F)(F)Sc1ccc(/C=C/c2cc(/C=C/c3ccc(SC(F)(F)F)cc3)n(-c3ccccc3)n2)cc1 : inactive
C#CCOc1cccc(Nc2ncc3ncn(C4CCN(C(=O)CCl)C4)c3n2)c1 (stereo not given) : active
COc1ccc(/C=C2/C(=O)N=C3N2NC(c2ccccc2)=CN3c2ccccc2)cc1 : inactive

Please turn your attention to the following entry.
Tell me the assay call for CCCCC1COc2cccc3c2N1C=C/C3=C\C(=O)N(C)c1cccc(Cl)c1 (stereo not given) please. inactive

* * *

Tested on: SW-620 colon
experimental protocol: NCI-60 one-dose screen, 48 h (100 = growth as untreated, 0 = no growth, -100 = all killed)
run conditions: 10 µM unless noted
Compounds without any hit were thinned out: in the full panel of roughly 83,000, 20% have a hit. The source made the active and inactive calls. The calls were made as follows: active = growth percent below 10; inactive = the rest.
test readout: growth

Study these solved cases before continuing.
O=C(c1cccc(Br)c1)N1CCN(c2ccnc3cc(Cl)ccc23)CC1 : 101% (inactive)
O=C1CCc2c(sc3[nH]c(=S)n(Cc4ccc(Cl)cc4)c(=O)c23)C1 : 16.5% (inactive)
CC/C(=C(/c1ccc(O)cc1)c1ccc(OCCN2CCCCCC2)cc1)c1ccc(Cl)cc1 : 62.6% (inactive)
Nc1nc(CSc2n[nH]c(N)n2)nc(Nc2ccccc2)n1 : 99% (inactive)

For the compound shown here, CCN1C(=S)N(CC)C2C1NC(=S)N2/N=C/C=C/c1ccccc1 (stereo not given) , give the reported growth. 28% (inactive)

Quick one: `COC(=O)/C=C1/SC(=Nc2ccc([N+](=O)[O-])cc2)N(CCc2c[nH]c3ccccc23)C1=O` 47.3% (inactive)

Quick one: `CC1(C)C(N)=Nc2cc(OCCCCN3Cc4ccccc4C3)c(OCC3CC3)cc21` 92.8% (inactive)

Quick one: CCCCC(NC(=O)CN1C(=O)/C(=C/C(C)=C/c2ccccc2)SC1=S)C(=O)O (stereo not given) 94.6% (inactive)

Quick one: `Cc1nn(-c2nc(-c3cc4ccccc4oc3=O)cs2)c(C)c1N=Nc1ccccc1` 103% (inactive)

Quick one: `COc1ccccc1/C=C1\COc2ccc(O)cc2C1=O` 9.45% (active)

Quick one: `CCNC(=S)n1nc(SC)c(C(=O)OCC)c1N` 102% (inactive)

Quick one: `CC(=O)c1nn(-c2ccccc2)/c(=N/N=Cc2cn(-c3ccccc3)nc2-c2cc3ccccc3oc2=O)s1` 104% (inactive)

Quick one: `COc1ccc(/C(C)=C(\c2ccc(OCCN3CCOCC3)cc2)c2ccc(OC(=O)C3CCCCC3)cc2)cc1` 102% (inactive)

Quick one: `CCN(CC)CC#CCOC(=O)[C@]1(C)CCC[C@]2(C)c3ccc(C(C)C)cc3CC[C@@H]12` 87.7% (inactive)

* * *

Reported growth values are given for each entry in this list.
Test system: SW-620 colon
experimental protocol: NCI-60 one-dose screen, 48 h (100 = growth as untreated, 0 = no growth, -100 = all killed)
run conditions: 10 µM unless noted
This is part of a sample that, as a whole, favours compounds with a hit. Of some 83,000 tested, about 20% had one in any assay.
Kindly answer with a numeric value in %, unit omitted.

COc1ccc(C/C(C)=C(/c2ccc(OCCN3CCCCCC3)cc2)c2ccc(OC(=O)c3ccccc3)cc2)cc1 : 98.4
Nc1nc(N)c2c(n1)NC(c1cccc(Nc3ccnc4cc(C(F)(F)F)ccc34)c1)CC(c1ccc(F)cc1)=N2 (centres undefined) : 26.4
Clc1ccc(Nc2nc(Nc3ccc(Cl)cc3)nc(Nc3ccc(-c4cc(-c5cccc(Cl)c5)on4)cc3)n2)cc1 : 96.6

Now, please, on to the next molecule.
For the molecule shown here, C=C1CCC2C3(C)COC(c4ccc(NC(C)=O)cc4)OC3CCC2(C)C1C/C=C1/C(=O)OCC1O (centres undefined) , give the reported growth. 77.3

All values here come from PubChem BioAssay (NCI).
